This collection of values is drawn from PubChem BioAssay.

ASSAY_REMARKS: promoters of myeloid differentiation in arrested cells, primary screen, cell-based, GFP/MAC1 double positive, flow cytometry, validation set (AID 588685);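 note: compound exposure lasts four days before antibody staining and flow analysis; 0% = DMSO wells and 100% = 5 µM fulvestrant positive control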
ASSAY_CONDITIONS: ER-HoxA9 marrow cells, stronger effect = higher value
Calls of active or inactive are those of the source.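 Rule for the calls: active = differentiation response of at least 50%, scaled between solvent and reference control, from cells with both markers; inactive = the rest.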
VALUE_KIND: differentiation response

CCOC(=O)c1cncn1C(C)c1ccccc1 (stereo unspecified)	2.2% (inactive)
[N-]=[N+]=CC(=O)OC[C@H](N)C(=O)O	0.92% (inactive)
COc1ccc2c3c([nH]c2c1)C(C)=NCC3	20.8% (inactive)
CC(=O)OC1C2CCC1C(N1CCCC1)CC2 (stereo unspecified)	-12.9% (inactive)
CC(=O)c1ccc(-c2ccccc2)cc1	4.91% (inactive)
COc1ccc2c(c1)CC1(CN2C)C(=O)NC(=O)N(CCc2ccccc2)C1=O (stereo unspecified)	27.6% (inactive)

====

ASSAY_REMARKS: inhibitors of CD8+ T cell-vesicle binding, pilot screen, LFA-1/ICAM-1 modulator project, MLPCN validation set, flow cytometry (AID 2523)
ASSAY_CONDITIONS: 2C mouse CD8+ T cells, at 7 µM, stronger effect = lower value; measured here: CD8+/vesicle+ event percentage
VALUE_KIND: double positive events (%)

C[N+]1(C)CCN(c2ccccc2)CC1	53.4
CN[C@H]1C[C@H]2O[C@@](C)([C@H]1OC)n1c3ccccc3c3c4c(c5c6ccccc6n2c5c31)C(=O)NC4	64
CCN1CC2(COC(=O)c3ccccc3N)CCC(OC)C34C5CC6C(OC)CC(O)(C5C6OC)C(O)(C(OC)C23)C14 (stereo not drawn)	68.8
Cc1ccc(-n2c(C)cc(/C=C3/C(=O)NC(=O)N(C)C3=O)c2C)cc1	64.1
COc1ccc(Cc2nccc3cc(OC)c(OC)cc23)cc1OC	59.9
O=c1c2ccccc2nc(/C=C/c2ccc3c(c2)OCO3)n1-c1ccccc1	59.9
CC(C)C[C@H]1C(=O)N2CCCC2[C@]2(O)O[C@](NC(=O)[C@@H]3C=C4c5cccc6[nH]cc(c56)CC4N(C)C3)(C(C)C)C(=O)N12 (stereo partly drawn)	61.2
C=C1CC[C@@]2(O)[C@H]3Cc4ccc(O)c5c4[C@@]2(CCN3CC2CC2)[C@H]1O5	64.3

====

ASSAY_REMARKS: modulators of LAP4-GFP expression in yeast, primary screen, S. cerevisiae, multiplex flow cytometry (AID 1873)
ASSAY_CONDITIONS: 3 h, at 10 µM, stronger effect = higher value
Inconclusive results are not listed. Peptide text beside a SMILES is read from it.
VALUE_KIND: GFP response vs DMSO (%)

CCNC(=O)[C@H]1O[C@@H](n2cnc3c(N)ncnc32)[C@H](O)[C@@H]1O	88.6
S=C1NCCN1	102
NNC(=O)c1ccc(Cl)cc1	102
CN1C(=O)CN=C(c2ccc(Cl)cc2)c2cc(Cl)ccc21	103
COC1=CC(=O)OC(/C=C/c2ccccc2)C1 (stereo unspecified)	104
O=c1[nH]c2ccccc2n1C1CCN(CCCC(c2ccc(F)cc2)c2ccc(F)cc2)CC1	130
Cc1cccc(C)c1NC1=NCCCS1	91.3
OC1CCCCC1N1CCC(c2ccccc2)CC1 (stereo unspecified)	70.4
C#CCN(C)C(C)Cc1ccccc1 (stereo unspecified)	88.7
CC(=O)[C@H]1CC[C@H]2[C@@H]3CC[C@H]4C[C@H](O)CC[C@]4(C)[C@H]3C(=O)C[C@]12C	106
CC[C@@H](CO)NC(=O)[C@@H]1C=C2c3cccc4c3c(cn4C)C[C@H]2N(C)C1	90.3
C[C@@H]1O[C@@H](O[C@H]2C[C@@H](O)[C@]3(CO)[C@H]4[C@H](O)C[C@]5(C)[C@@H](C6COC(=O)C6)CC[C@]5(O)[C@@H]4CC[C@]3(O)C2)[C@H](O)[C@H](O)[C@H]1O (stereo partly specified)	112
c1ccc2c(c1)Nc1ccccc1S2	81.4
C[C@H]1CCC[C@H](O)CCCCCc2cc(O)cc(O)c2C(=O)O1	87.3
CC12CN3CC(C)(CN(C1)C3c1cccnc1)C2=O (stereo unspecified)	81.4
C[C@]12CC[C@@H](O)C[C@@H]1CC[C@@H]1[C@@H]2CC[C@]2(C)[C@@H](O)CC[C@@H]12	150
O=c1c2ccccc2[se]n1-c1ccccc1	94.4
CN(C)[C@@H]1C(=O)C(C(N)=O)=C(O)[C@@]2(O)C(=O)C3=C(O)c4c(O)cccc4[C@@](C)(O)[C@H]3[C@H](O)[C@@H]12	97.4
NCC1(c2ccc3c(c2)OCCO3)CCCC1	89.3
CC(C)C[C@H](NC(=O)[C@@H]1CCCN1C(=O)[C@@H](N)Cc1ccc(O)cc1)C(=O)NCC(N)=O (H-YPLG-NH2)	89.3
CC(=O)OC1C2CCC1C(N1CCCC1)CC2 (stereo unspecified)	104
COc1ccc(OC)c([C@@H](O)[C@H](C)NC(C)(C)C)c1	91.5
CC[C@@H]1C(=O)OC[C@@H]1Cc1cncn1C	88
COc1ccc(CN2CC3CC(C2)c2cccc(=O)n2C3)cc1OC (stereo unspecified)	84.1
C[C@H](O)[C@H]1CC[C@H]2[C@@H]3CCC4=CC(=O)CC[C@]4(C)[C@H]3CC[C@]12C	126
CCOc1ccc(C2C(C#N)=C(N)Oc3c2c(=O)oc2ccccc32)cc1 (stereo unspecified)	102
CCCC[N+]1(C)[C@@H]2CC(OC(=O)[C@H](CO)c3ccccc3)C[C@H]1[C@@H]1O[C@@H]12 (stereo partly specified)	112
CC[N+]1(C)CCCC(OC(=O)C(O)(c2ccccc2)c2ccccc2)C1 (stereo unspecified)	103
Nc1ccncc1	77.6
C[N+]1(C)[C@@H]2CC[C@H]1CC(OC(=O)C(CO)c1ccccc1)C2 (stereo partly specified)	113
CN1C[C@H](CNC(=O)OCc2ccccc2)C[C@@H]2c3cccc4c3c(cn4C)C[C@H]21	104

====

Test system: Botulinum neurotoxin type F light chain protease (Clostridium botulinum)
ASSAY_REMARKS: Botulinum neurotoxin type F light chain protease inhibition, multiplex microsphere flow cytometry, validation set (AID 588459)
ASSAY_CONDITIONS: multiplex microsphere protease substrate cleavage assay, at 10 µM, stronger effect = higher value
This listing pairs compounds with measured inhibition.
VALUE_KIND: inhibition (%)

O=C(O)c1cnccn1	-5.5
COc1cc2c(cc1OC)C(C)=NC1(CCCCC1)C2	9.8
O=C1c2ccccc2C(=O)N1/N=C/c1ccc(Oc2ccc([N+](=O)[O-])cn2)cc1	0.2

====

Test system: Botulinum neurotoxin type F light chain protease (Clostridium botulinum)
ASSAY_REMARKS: Botulinum neurotoxin type F light chain protease inhibition, multiplex microsphere flow cytometry, validation set (AID 588459)
ASSAY_CONDITIONS: multiplex microsphere protease substrate cleavage assay, at 10 µM, stronger effect = higher value
VALUE_KIND: inhibition (%)

C(=C/c1nccc2c1[nH]c1ccccc12)/c1ccc2c(c1)OCO2	3.2
CC1(C)CC(=O)c2cnc(NC(=O)C3CCCC3)nc2C1	1.2
Cc1cccc(C)c1NC1=NCCCS1	-2.3
COC(=O)c1cc(-c2ccc(OC)c(OC)c2)on1	6.2
COc1ccc2nc(Nc3nc(CSc4ccc(C)cc4)cc(=O)[nH]3)nc(C)c2c1	0.6
CC(C)CC(=O)OC1C(N2CCOCC2)c2c(ccc(/C=C/C(=O)N3CCOCC3)c2O)OC1(C)C (centres undefined)	0.5
CC(C)CC12CN3CCN(CC(C3)C1O)C2 (centres undefined)	3.6
COc1ccc(-c2cc(=O)oc3c(C)c(O)c(CN(C)C)cc23)cc1	11.3
O=c1[nH]cc(F)c(=O)[nH]1	0.6
COc1ccc(CN(CCC(c2ccc(F)cc2)C2CCOC(C)(C)C2)C(=O)c2ccco2)cc1 (centres undefined)	-2.6
COc1cccc(OCc2nnc(-c3cccs3)o2)c1	1.2
CN(C)[C@@H]1C(=O)C(C(=O)NCN2CCCC2)=C(O)[C@@]2(O)C(=O)C3=C(O)c4c(O)cccc4[C@@](C)(O)C3CC12 (some centres undefined)	-4.8
CCOC(=O)Cn1c(C)cc(=O)c2ccccc21	6.3
O=[N+]([O-])c1cccc2cn[nH]c12	6.9
COc1cc(C(=O)OCCn2c(=O)c3c(ncn3CCN(C)C)n(C)c2=O)cc(OC)c1OC	5.1
CCOC(=O)N1CCN(Cc2nc(Cc3cccc(F)c3)no2)CC1	1.3
Cc1ccc2c(c1)C1(C(=O)N2)N2CCCC2C(C(=O)c2ccc3ccccc3c2)C12C(=O)Nc1ccccc12 (centres undefined)	0
C[C@H]1C[C@@H]2[C@H]([C@@H](O)C[C@@]3(C)[C@H]2CC[C@]3(O)C(=O)CO)[C@@]2(C)C=CC(=O)C=C12	-2.2
COc1ccc(CCNC(=O)c2ccc(Cl)cc2)cc1OC	0.6
CCOC(=O)C1CCCN(Cc2nc(Cc3cccc(F)c3)no2)C1 (centres undefined)	0.1
Cc1occc(=O)c1O	2.1
Cc1ccc(C(=O)COC(=O)c2cccc(N3C(=O)c4c(C)nc5ccccc5c4C3=O)c2)cc1C	-1.2
CCNC(=O)C(Cc1ccccc1)NC(=O)OCc1ccccc1 (centres undefined)	0.3
CO[C@H]1C=CO[C@@]2(C)Oc3c(C)c(O)c4c(O)c(c(C=NN5CCN(C)CC5)c(O)c4c3C2=O)NC(=O)C(C)=CC=C[C@H](C)[C@H](O)[C@@H](C)[C@@H](O)[C@@H](C)[C@H](OC(C)=O)[C@@H]1C	-7.2
CCC1(c2ccccc2)C(=O)N(COC)C(=O)N(COC)C1=O	2
CCCC(=O)Nc1ccccc1NC(C)=O	1.4
Fc1cccc(Cc2noc(CN3CCN(c4cnccn4)CC3)n2)c1	3.7
CC12CN3CC(C)(CN(C1)C3c1ccc(Br)cc1O)C2 (centres undefined)	-1.8
CCNC(=S)N(C)CCc1cc2c(c(OC)c1C=C1C(=O)N(C)C(=O)N(C)C1=O)OCO2	1.8
CN1C(=O)CN=C(c2ccc(Cl)cc2)c2cc(Cl)ccc21	3.6
O=C(NCCNc1ccc(Cl)cc1[N+](=O)[O-])c1cccnc1	0.4
COCCCNc1nc2c([nH]1)c(=O)[nH]c(=O)n2C	2.6
O=C(CCCCCCCC(=O)c1ccccc1)c1ccccc1	-2
CC(C)(C)NCC(O)COc1cccc2c1C[C@H](O)[C@H](O)C2 (some centres undefined)	-2.3
CCCN1CCC(NC(=O)Nc2ccc(Br)cc2)CC1	0.5
CC(C)C12CN3CC(C(C)C)(CN(C1)C31C(=O)Nc3ccccc31)C2=O (centres undefined)	0.1
CC[n+]1c(C)sc2cc(C)ccc21	3.6
O=C1CC(c2ccc(OCCCCCOc3ccc(C4CC(=O)NC4=O)cc3)cc2)C(=O)N1 (centres undefined)	2.5
O=C(O)COc1ccc2occ(C(=O)c3ccccc3)c2c1	-1.3
